test system: ESS-1 (Other Solid Carcinomas); experiment: combination Emax (second highest fraction inhibited in the dose matrix, 72 h); higher = more inhibition; extreme values may be limits of the assay
Consider the following compounds; for each one, report its combination Emax.
The answer should be a number; do not append a unit.

Incoming: # combination Emax lookup, item NC1(C(=O)N[C@@H](CCO)c2ccc(Cl)cc2)CCN(c2ncnc3[nH]ccc23)CC1 [Capivasertib] + CCN(CCO)CCCOc1ccc2c(Nc3cc(CC(=O)Nc4cccc(F)c4)[nH]n3)ncnc2c1 [AZD2811] (first compound max 10 µM, 7x7, partner max 1 µM)
Outgoing: 0.812

Incoming: # combination Emax lookup, item Cc1c2c(nn1C)CSCc1cc(n(C)n1)CSc1cc(c3ccccc3c1)OCCCc1c(C(=O)O)n(C)c3c-2c(Cl)ccc13 [AZD5991] + Nc1ccn([C@@H]2O[C@H](CO)[C@@H](O)C2(F)F)c(=O)n1 [Gemcitabine] (first compound max 1 µM, 7x7, partner max 0.3 µM)
Outgoing: 0.961

###

tested on: Hs-746T (Gastric Carcinoma); experiment: combination Emax (second highest fraction inhibited in the dose matrix, 72 h); higher = more inhibition; extreme values may be limits of the assay
Consider the following compounds; for each one, report its combination Emax.
The answer should be a number; do not append a unit.

Incoming: # combination Emax lookup, item Cn1cnc2c(F)c(Nc3ccc(Br)cc3Cl)c(C(=O)NOCCO)cc21 [Selumetinib] + C=CCn1c(=O)c2cnc(Nc3ccc(N4CCN(C)CC4)cc3)nc2n1-c1cccc(C(C)(C)O)n1 [AZD1775] (first compound max 10 µM, partner max 1 µM)
Outgoing: 0.636

Incoming: # combination Emax lookup, item C=CCn1c(=O)c2cnc(Nc3ccc(N4CCN(C)CC4)cc3)nc2n1-c1cccc(C(C)(C)O)n1 [AZD1775] + C[C@@H]1COCCN1C2=NC(=NC(=C2)C3(CC3)[S@](=N)(=O)C)C4=C5C=CNC5=NC=C4 [AZD6738] (first compound max 1 µM, partner max 10 µM)
Outgoing: 0.691

Incoming: # combination Emax lookup, item CC1(C)CCC(CN2CCN(c3ccc(C(=O)NS(=O)(=O)c4ccc(NCC5CCOCC5)c([N+](=O)[O-])c4)c(Oc4cnc5[nH]ccc5c4)c3)CC2)=C(c2ccc(Cl)cc2)C1 [Venetoclax] + Cn1cnc2c(F)c(Nc3ccc(Br)cc3Cl)c(C(=O)NOCCO)cc21 [Selumetinib] (first compound max 1 µM, 7x7, partner max 3 µM)
Outgoing: 0.242

Incoming: # combination Emax lookup, item CN(CCO)CC[C@H](CSc1ccccc1)Nc1ccc(S(=O)(=O)NC(=O)c2ccc(N3CCC([C@@H](O)c4ccccc4-c4ccc(Cl)cc4)CC3)cc2)cc1S(=O)(=O)C(F)(F)F [AZD4320] + C=CCn1c(=O)c2cnc(Nc3ccc(N4CCN(C)CC4)cc3)nc2n1-c1cccc(C(C)(C)O)n1 [AZD1775] (first compound max 1 µM, partner max 1 µM)
Outgoing: 0.738

###

tested on: CAL-72 (Osteosarcoma); test: combination Emax (second highest fraction inhibited in the dose matrix, 72 h); higher = more inhibition; extreme values may be limits of the assay
readoutLabel: combination Emax
The answer should be a number; do not append a unit.

Incoming: Recorded combination Emax for CN(CCO)CC[C@H](CSc1ccccc1)Nc1ccc(S(=O)(=O)NC(=O)c2ccc(N3CCC([C@@H](O)c4ccccc4-c4ccc(Cl)cc4)CC3)cc2)cc1S(=O)(=O)C(F)(F)F [AZD4320] + Cc1cc2ncnn2cc1Nc1ncc2c(n1)n(C1CCOCC1)c(=O)n2C [AZD7648] (first compound max 1 µM, 7x7, partner max 10 µM) with CAL-72 (Osteosarcoma), please?
Outgoing: 0.382

Incoming: Recorded combination Emax for C[C@@H](Nc1cc(F)cc(F)c1)c1cc(C(=O)N(C)C)cc2c(=O)cc(N3CCOCC3)oc12 [AZD8186] + C1CN(CCC1(C(=O)N[C@@H](CCO)C2=CC=C(C=C2)Cl)N)C3=NC=NC4=C3C=CN4 [AZD5363] (first compound max 10 µM, 7x7, partner max 10 µM) with CAL-72 (Osteosarcoma), please?
Outgoing: 0.29

Incoming: Recorded combination Emax for CC1(C)CCC(CN2CCN(c3ccc(C(=O)NS(=O)(=O)c4ccc(NCC5CCOCC5)c([N+](=O)[O-])c4)c(Oc4cnc5[nH]ccc5c4)c3)CC2)=C(c2ccc(Cl)cc2)C1 [Venetoclax] + C1CN(CCC1(C(=O)N[C@@H](CCO)C2=CC=C(C=C2)Cl)N)C3=NC=NC4=C3C=CN4 [Capivasertib] (first compound max 1 µM, 7x7, partner max 3 µM) with CAL-72 (Osteosarcoma), please?
Outgoing: 0.554

###

tested on: BFTC-909 (Kidney Carcinoma); test: combination Emax (second highest fraction inhibited in the dose matrix, 72 h); higher = more inhibition; extreme values may be limits of the assay
readoutLabel: combination Emax
The answer should be a number; do not append a unit.

Incoming: # combination Emax lookup, item CN(C)CCCOc1ccc(-c2ccc3ncc4c(c3c2)n(C2CCOCC2)c(=O)n4C)cn1 [AZD0156] + C[C@@H]1COCCN1C2=NC(=NC(=C2)C3(CC3)[S@](=N)(=O)C)C4=C5C=CNC5=NC=C4 [AZD6738] (first compound max 1 µM, 7x7, partner max 10 µM)
Outgoing: 0.813

Incoming: # combination Emax lookup, item CN(CCO)CC[C@H](CSc1ccccc1)Nc1ccc(S(=O)(=O)NC(=O)c2ccc(N3CCC([C@@H](O)c4ccccc4-c4ccc(Cl)cc4)CC3)cc2)cc1S(=O)(=O)C(F)(F)F [AZD4320] + C=CCn1c(=O)c2cnc(Nc3ccc(N4CCN(C)CC4)cc3)nc2n1-c1cccc(C(C)(C)O)n1 [AZD1775] (first compound max 1 µM, partner max 1 µM)
Outgoing: 0.905

Incoming: # combination Emax lookup, item NC1(C(=O)N[C@@H](CCO)c2ccc(Cl)cc2)CCN(c2ncnc3[nH]ccc23)CC1 [Capivasertib] + CC(C)n1c(=O)n(C)c2cnc3cc(F)c(-c4ccc(OCCCN5CCCCC5)nc4)cc3c21 [AZD1390] (first compound max 10 µM, 7x7, partner max 0.3 µM)
Outgoing: 0.622

Incoming: # combination Emax lookup, item CC1(C)CCC(CN2CCN(c3ccc(C(=O)NS(=O)(=O)c4ccc(NCC5CCOCC5)c([N+](=O)[O-])c4)c(Oc4cnc5[nH]ccc5c4)c3)CC2)=C(c2ccc(Cl)cc2)C1 [Venetoclax] + Cc1cc2ncnn2cc1Nc1ncc2c(n1)n(C1CCOCC1)c(=O)n2C [AZD7648] (first compound max 1 µM, 7x7, partner max 10 µM)
Outgoing: 0.294

Incoming: # combination Emax lookup, item Cc1c2c(nn1C)CSCc1cc(n(C)n1)CSc1cc(c3ccccc3c1)OCCCc1c(C(=O)O)n(C)c3c-2c(Cl)ccc13 [AZD5991] + C[C@@H]1COCCN1C2=NC(=NC(=C2)C3(CC3)[S@](=N)(=O)C)C4=C5C=CNC5=NC=C4 [AZD6738] (first compound max 1 µM, 7x7, partner max 10 µM)
Outgoing: 0.931

Incoming: # combination Emax lookup, item COc1nnc2ccc(N3CCC(c4ccc(OCCN5CCN(C)C(=O)[C@H]5C)cc4)CC3)nn12 [AZD5153] + CCN(CCO)CCCOc1ccc2c(Nc3cc(CC(=O)Nc4cccc(F)c4)[nH]n3)ncnc2c1 [AZD2811] (first compound max 1 µM, 7x7, partner max 1 µM)
Outgoing: 0.535

Incoming: # combination Emax lookup, item NC1(C(=O)N[C@@H](CCO)c2ccc(Cl)cc2)CCN(c2ncnc3[nH]ccc23)CC1 [Capivasertib] + CCN(CCO)CCCOc1ccc2c(Nc3cc(CC(=O)Nc4cccc(F)c4)[nH]n3)ncnc2c1 [AZD2811] (first compound max 10 µM, 7x7, partner max 1 µM)
Outgoing: 0.638

###

test system: ESS-1 (Other Solid Carcinomas); test: combination Emax (second highest fraction inhibited in the dose matrix, 72 h); higher = more inhibition; extreme values may be limits of the assay
Consider the following compounds; for each one, report its combination Emax.
The answer should be a number; do not append a unit.

Incoming: # combination Emax lookup, item CC1(C)CCC(CN2CCN(c3ccc(C(=O)NS(=O)(=O)c4ccc(NCC5CCOCC5)c([N+](=O)[O-])c4)c(Oc4cnc5[nH]ccc5c4)c3)CC2)=C(c2ccc(Cl)cc2)C1 [Venetoclax] + C=CCn1c(=O)c2cnc(Nc3ccc(N4CCN(C)CC4)cc3)nc2n1-c1cccc(C(C)(C)O)n1 [AZD1775] (first compound max 1 µM, partner max 1 µM)
Outgoing: 1

Incoming: # combination Emax lookup, item Cc1c2c(nn1C)CSCc1cc(n(C)n1)CSc1cc(c3ccccc3c1)OCCCc1c(C(=O)O)n(C)c3c-2c(Cl)ccc13 [AZD5991] + Cn1cnc2c(F)c(Nc3ccc(Br)cc3Cl)c(C(=O)NOCCO)cc21 [Selumetinib] (first compound max 1 µM, 7x7, partner max 3 µM)
Outgoing: 0.224

Incoming: # combination Emax lookup, item COc1cc2ncnc(Nc3ccc(F)c(Cl)c3)c2cc1OCCCN1CCOCC1 [Gefitinib] + CC(C)n1c(=O)n(C)c2cnc3cc(F)c(-c4ccc(OCCCN5CCCCC5)nc4)cc3c21 [AZD1390] (first compound max 10 µM, 7x7, partner max 0.3 µM)
Outgoing: 0.153

Incoming: # combination Emax lookup, item NC1(C(=O)N[C@@H](CCO)c2ccc(Cl)cc2)CCN(c2ncnc3[nH]ccc23)CC1 [Capivasertib] + C[C@@H]1COCCN1C2=NC(=NC(=C2)C3(CC3)[S@](=N)(=O)C)C4=C5C=CNC5=NC=C4 [AZD6738] (first compound max 10 µM, 7x7, partner max 10 µM)
Outgoing: 0.959

Incoming: # combination Emax lookup, item N#Cc1cnc(Nc2cc(NC[C@H]3CNCCO3)c(C(F)(F)F)cn2)cn1 [SRA737] + CCc1c2c(nc3ccc(O)cc13)-c1cc3c(c(=O)n1C2)COC(=O)[C@]3(O)CC [SN-38] (first compound max 10 µM, 7x7, partner max 0.3 µM)
Outgoing: 1

Incoming: # combination Emax lookup, item COc1nnc2ccc(N3CCC(c4ccc(OCCN5CCN(C)C(=O)[C@H]5C)cc4)CC3)nn12 [AZD5153] + Cn1cnc2c(F)c(Nc3ccc(Br)cc3Cl)c(C(=O)NOCCO)cc21 [Selumetinib] (first compound max 1 µM, 7x7, partner max 10 µM)
Outgoing: 0.585

The origin of these recorded values is the supplement of paper PMC11061612.
